Experiment: Cytotoxicity against african green monkey Vero cells assessed as drug concentration at which no cellular alteration was microscopically detected
Assay type: cell-based
Conditions: chlorocebus sabaeus, read-out: MTC
Counter-ions that a name gives are not always drawn.
Measured MNTC accompanies every entry in the list below.
// units = µM; emit number, no label

Answered examples (3):
molecule="COc1cc2c(cc1O)C[C@@H]1NCCc3cc(O)c(OC)c-2c31 [NORBOLDINE]" assay_readout=MNTC measurement=62
molecule="COc1ccc2c(c1)[C@H](OC)[C@@H]1c3c(cc4c(c3-2)OCO4)CCN1C [OLIVERINE HCL]" assay_readout=MNTC measurement=7
molecule="COc1cc2c3c(c1OC)-c1ccccc1C[C@H]3N(C)CC2.Cl [NUCIFERINE HYDROCHLORIDE]" assay_readout=MNTC measurement=125

Next item in the queue.
Looking up O=C1c2ccccc2-c2c3c(cc4ccnc1c24)OCO3 [LIRIODENINE] , I see its MNTC listed as 31

Source: ChEMBL document CHEMBL1158665
